The reported measurements were obtained from patent US20210388087A1.

# target: T1, Human CD3eg linker (human)
# T1 construct: Single chain: epsilon and gamma subunits of human CD3 joined by a 29-mer linker, Flag-tag at the C-terminus; also called recombinant human CD3
# T1 chain: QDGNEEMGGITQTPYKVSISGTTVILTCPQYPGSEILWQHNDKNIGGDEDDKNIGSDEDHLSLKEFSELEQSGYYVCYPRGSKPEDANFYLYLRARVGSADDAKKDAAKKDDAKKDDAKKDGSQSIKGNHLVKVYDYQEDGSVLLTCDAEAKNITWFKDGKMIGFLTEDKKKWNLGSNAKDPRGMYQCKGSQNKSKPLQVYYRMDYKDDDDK
# protocol_text: Biacore SPR, vs template H183/L072
parameter: fold change of affinity (fold)
Field format: number, assumed fold, no unit text.

>>> test_value("H183/L072 VH K52bT (antibody, name in Kabat numbering, V domains shown) VH: QVQLVESGGGLVQPGRSLRLSCAASGFTFSNAWMHWVRQAPGKGLEWVAQIKDTGNAYAAYYAPSVKGRFTISRDDSKNSIYLQMNSLKTEDTAVYYCHYVHYASASTVLPAFGVDAWGQGTTVTVSS VL: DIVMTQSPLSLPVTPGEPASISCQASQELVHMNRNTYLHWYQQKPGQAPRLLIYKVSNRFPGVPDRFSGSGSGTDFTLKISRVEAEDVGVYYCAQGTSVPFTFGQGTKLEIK")
0.3
>>> test_value("H183/L072 VH K64P (antibody, name in Kabat numbering, V domains shown) VH: QVQLVESGGGLVQPGRSLRLSCAASGFTFSNAWMHWVRQAPGKGLEWVAQIKDKGNAYAAYYAPSVPGRFTISRDDSKNSIYLQMNSLKTEDTAVYYCHYVHYASASTVLPAFGVDAWGQGTTVTVSS VL: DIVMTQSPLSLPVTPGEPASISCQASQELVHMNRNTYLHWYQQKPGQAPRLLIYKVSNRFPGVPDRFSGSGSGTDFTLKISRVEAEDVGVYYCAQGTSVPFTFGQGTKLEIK")
1.6
>>> test_value("H183/L072 VH T28V (antibody, name in Kabat numbering, V domains shown) VH: QVQLVESGGGLVQPGRSLRLSCAASGFVFSNAWMHWVRQAPGKGLEWVAQIKDKGNAYAAYYAPSVKGRFTISRDDSKNSIYLQMNSLKTEDTAVYYCHYVHYASASTVLPAFGVDAWGQGTTVTVSS VL: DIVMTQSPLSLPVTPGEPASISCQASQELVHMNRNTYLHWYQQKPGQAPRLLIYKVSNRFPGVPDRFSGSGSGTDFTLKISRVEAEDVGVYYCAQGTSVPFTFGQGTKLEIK")
1

Give the measured fold change of affinity of H183/L072 VH A32L (antibody, name in Kabat numbering, V domains shown) VH: QVQLVESGGGLVQPGRSLRLSCAASGFTFSNLWMHWVRQAPGKGLEWVAQIKDKGNAYAAYYAPSVKGRFTISRDDSKNSIYLQMNSLKTEDTAVYYCHYVHYASASTVLPAFGVDAWGQGTTVTVSS VL: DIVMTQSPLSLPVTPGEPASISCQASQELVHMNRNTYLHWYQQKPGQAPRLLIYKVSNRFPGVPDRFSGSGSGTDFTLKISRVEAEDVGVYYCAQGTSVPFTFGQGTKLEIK .
0

Give the measured fold change of affinity of H183/L072 VH Y58E (antibody, name in Kabat numbering, V domains shown) VH: QVQLVESGGGLVQPGRSLRLSCAASGFTFSNAWMHWVRQAPGKGLEWVAQIKDKGNAYAAEYAPSVKGRFTISRDDSKNSIYLQMNSLKTEDTAVYYCHYVHYASASTVLPAFGVDAWGQGTTVTVSS VL: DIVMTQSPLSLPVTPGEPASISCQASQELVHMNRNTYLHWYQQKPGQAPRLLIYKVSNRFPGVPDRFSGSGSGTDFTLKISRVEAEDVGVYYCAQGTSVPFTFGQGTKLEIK .
0.2
